property.measured: melting point

// query What melting point value was documented for this compound, Oc1ccc(-c2noc(C3(COc4c(F)cccc4OC(F)(F)F)CC3)c2-c2ccccc2)cc1 [Example 5] ?
// result 132 to 133 °C

// query What melting point value was documented for this compound, CCC(O)(CC)C1(c2onc(-c3ccc(O)cc3)c2-c2ccccc2)CC1 [Example 50] ?
// result 118 to 119 °C

// query What melting point value was documented for this compound, CCOc1ncccc1OCC1(c2onc(-c3ccc(O)cc3)c2-c2ccccc2)CC1 [Example 6] ?
// result 190 to 192 °C

// query What melting point value was documented for this compound, "Oc1ccc(-c2noc(C3(C[n+]4ccccc4)CC3)c2-c2ccccc2)cc1.[Cl-]" ?
// result 244 to 245 °C

// query What melting point value was documented for this compound, CC[C@@H](O)C1(c2onc(-c3ccc(O)cc3)c2-c2ccccc2)CC1 [Example 48] ?
// result 163 to 164 °C

// query What melting point value was documented for this compound, CCC(NCC1(c2onc(-c3ccc(O)cc3)c2-c2ccccc2)CC1)c1ccccc1 (racemic) [Example 25] ?
// result 126 to 127 °C

// query What melting point value was documented for this compound, "Cl.Oc1ccc(-c2noc(C3(CNc4ccncc4)CC3)c2-c2ccccc2)cc1" ?
// result 316 to 317 °C

// query What melting point value was documented for this compound, Oc1ccc(-c2noc(C3CC3)c2-c2ccccc2)cc1 [Example 35] ?
// result 197 to 200 °C

// query What melting point value was documented for this compound, C[C@@H](O)C1(c2onc(-c3ccc(O)cc3)c2-c2ccccc2)CC1 [Example 46] ?
// result 219 to 221 °C

###

measurement.target: ligand binding domain of the estrogen receptor beta chain (ERβLBD) that contained a point mutation at amino acid residue 418 (pm418) (Homo sapiens)
test: ER agonist cell assay (ERβ), Huh-7 co-transfection, luciferase
assay.setup: Huh-7 cells co-transfected with pG5luc and ERβLBD(pm418); overnight incubation; luciferase
property.measured: pEC50
Convention used: pEC50 is expressed as -log10 of the molar concentration.

// query What pEC50 value was documented for this compound, N#CCC1(c2onc(-c3ccc(O)cc3)c2-c2ccccc2)CC1 [Example 42] ?
// result 6.70

// query What pEC50 value was documented for this compound, O=C(OCC1(c2onc(-c3ccc(O)cc3)c2-c2ccccc2)CC1)C1CC1 [Example 51] ?
// result 7.07

// query What pEC50 value was documented for this compound, CC(C)OCC1(c2onc(-c3ccc(O)cc3)c2-c2ccccc2)CC1 [Example 3] ?
// result 6.25

// query What pEC50 value was documented for this compound, Oc1ccc(-c2noc(C3(CN4CCOCC4)CC3)c2-c2ccccc2)cc1 [Example 31] ?
// result 6.82

// query What pEC50 value was documented for this compound, CCC(O)C1(c2onc(-c3ccc(O)cc3)c2-c2ccccc2)CC1 (racemic) [Example 47] ?
// result 6.84

###

measurement.target: ligand binding domain of the estrogen receptor beta chain (ERβLBD) that contained a point mutation at amino acid residue 418 (pm418) (Homo sapiens, UniProt Q92731)
test: ER agonist cell assay (ERβ), Huh-7 co-transfection, luciferase
Assay type: cell-based
assay.setup: percent of the maximum estradiol fold change; Huh-7, pG5luc and ERβLBD(pm418)
Kindly state ERβ % of Max E2 Response for each of the entries shown.
The figure you give is taken to be in %; do not add the unit.

// query What ERβ % of Max E2 Response value was documented for this molecule, Oc1ccc(-c2noc(C3(C(O)c4ccccc4)CC3)c2-c2ccccc2)cc1 (racemic) ?
// result 2.37

// query What ERβ % of Max E2 Response value was documented for this molecule, CC(C)C(O)C1(c2onc(-c3ccc(O)cc3)c2-c2ccccc2)CC1 (racemic) ?
// result 3.82

// query What ERβ % of Max E2 Response value was documented for this molecule, "CC(C)(O)C1(c2onc(-c3ccc(O)cc3)c2-c2ccccc2)CC1" ?
// result 36.7

// query What ERβ % of Max E2 Response value was documented for this molecule, "CCCC(=O)OCC1(c2onc(-c3ccc(O)cc3)c2-c2ccccc2)CC1" ?
// result 92

// query What ERβ % of Max E2 Response value was documented for this molecule, "COc1ncccc1OCC1(c2onc(-c3ccc(O)cc3)c2-c2ccccc2)CC1" ?
// result 0.552

// query What ERβ % of Max E2 Response value was documented for this molecule, "CC[C@@H](O)C1(c2onc(-c3ccc(O)cc3)c2-c2ccccc2)CC1" ?
// result 71.8

// query What ERβ % of Max E2 Response value was documented for this molecule, "Oc1ccc(-c2noc(C3(COCC(F)(F)F)CC3)c2-c2ccccc2)cc1" ?
// result 1.98

// query What ERβ % of Max E2 Response value was documented for this molecule, "CCCOCC1(c2onc(-c3ccc(O)cc3)c2-c2ccccc2)CC1" ?
// result 2.63

// query What ERβ % of Max E2 Response value was documented for this molecule, "Oc1ccc(-c2noc(C3CC3)c2-c2ccccc2)cc1" ?
// result 5.78

// query What ERβ % of Max E2 Response value was documented for this molecule, "N#CCC1(c2onc(-c3ccc(O)cc3)c2-c2ccccc2)CC1" ?
// result 6.17

// query What ERβ % of Max E2 Response value was documented for this molecule, "CC(=O)C1(c2onc(-c3ccc(O)cc3)c2-c2ccccc2)CC1" ?
// result 13.6

// query What ERβ % of Max E2 Response value was documented for this molecule, "CC[C@@H](NCC1(c2onc(-c3ccc(O)cc3)c2-c2ccccc2)CC1)c1ccccc1" ?
// result 1.03

###

measurement.target: ligand binding domain of the estrogen receptor beta chain (ERβLBD) that contained a point mutation at amino acid residue 418 (pm418) (Homo sapiens, UniProt Q92731)
test: ER agonist cell assay (ERβ), Huh-7 co-transfection, luciferase
Format: cell-based
assay.setup: percent of the maximum estradiol fold change; Huh-7, pG5luc and ERβLBD(pm418)
Label label 1 when ERβ % of Max E2 Response is at or above 40%; anything below gets label 0.

// query # bool: ERβ % of Max E2 Response of "CC(C)C(=O)OCC1(c2onc(-c3ccc(O)cc3)c2-c2ccccc2)CC1" >= 40%
// result label 1

// query # bool: ERβ % of Max E2 Response of "CCC(=O)OCC1(c2onc(-c3ccc(O)cc3)c2-c2ccccc2)CC1" >= 40%
// result label 1

// query # bool: ERβ % of Max E2 Response of "C[C@@H](O)C1(c2onc(-c3ccc(O)cc3)c2-c2ccccc2)CC1" >= 40%
// result label 1

// query # bool: ERβ % of Max E2 Response of "COCC(=O)OCC1(c2onc(-c3ccc(O)cc3)c2-c2ccccc2)CC1" >= 40%
// result label 1

// query # bool: ERβ % of Max E2 Response of "CC(C)CC(=O)OCC1(c2onc(-c3ccc(O)cc3)c2-c2ccccc2)CC1" >= 40%
// result label 0

// query # bool: ERβ % of Max E2 Response of "Oc1ccc(-c2noc(C3(CNc4cccc(C(F)(F)F)c4)CC3)c2-c2ccccc2)cc1" >= 40%
// result label 0

// query # bool: ERβ % of Max E2 Response of "O=C(OCC1(c2onc(-c3ccc(O)cc3)c2-c2ccccc2)CC1)C1CC1" >= 40%
// result label 1

// query # bool: ERβ % of Max E2 Response of "OCC1(c2onc(-c3ccc(O)c(F)c3)c2-c2ccccc2)CC1" >= 40%
// result label 0

// query # bool: ERβ % of Max E2 Response of "Oc1ccc(-c2noc(C3(CN4CCOCC4)CC3)c2-c2ccccc2)cc1" >= 40%
// result label 0

// query # bool: ERβ % of Max E2 Response of "CC(=O)SCC1(c2onc(-c3ccc(O)cc3)c2-c2ccccc2)CC1" >= 40%
// result label 0

// query # bool: ERβ % of Max E2 Response of "Cl.Oc1ccc(-c2noc(C3(CN4CCSCC4)CC3)c2-c2ccccc2)cc1" >= 40%
// result label 0

// query # bool: ERβ % of Max E2 Response of "CCC(O)(CC)C1(c2onc(-c3ccc(O)cc3)c2-c2ccccc2)CC1" >= 40%
// result label 0

// query # bool: ERβ % of Max E2 Response of "Cc1ncccc1OCC1(c2onc(-c3ccc(O)cc3)c2-c2ccccc2)CC1" >= 40%
// result label 0

// query # bool: ERβ % of Max E2 Response of "CC(C)OCC1(c2onc(-c3ccc(O)cc3)c2-c2ccccc2)CC1" >= 40%
// result label 0

// query # bool: ERβ % of Max E2 Response of "CSCC1(c2onc(-c3ccc(O)cc3)c2-c2ccccc2)CC1" >= 40%
// result label 0

// query # bool: ERβ % of Max E2 Response of "Oc1ccc(-c2noc(C3(CSc4ccccc4)CC3)c2-c2ccccc2)cc1" >= 40%
// result label 0

// query # bool: ERβ % of Max E2 Response of "COc1ccc(-c2nnc(C3(c4onc(-c5ccc(O)cc5)c4-c4ccccc4)CC3)o2)cc1" >= 40%
// result label 0
